Source of measurements: ChEMBL document CHEMBL1136228

Test system: Rattus norvegicus
Experiment: Body weight of Sprague-Dawley rat after 30 mg/kg peroral administration
Settings: route oral
Field: Body weight. Provide a value for each of the compounds that follow.
Please state the figure in g; there is no need to write the unit.

Which Body weight is reported for this compound? CCCc1cc2c(C(F)(F)F)noc2c(CCC)c1OC(C(=O)O)c1ccccc1 (stereo unspecified)
276

Another compound: CCCc1c(OC(C(=O)O)c2ccccc2)c(Cl)cc2c(CC)noc12 (stereo unspecified)
312

Another compound: CCCc1cc2c(C(F)(F)F)noc2c(CCC)c1OC(C(=O)O)c1ccc(C(F)(F)F)cc1 (stereo unspecified)
318

Another compound: CCCc1cc2c(C(F)(F)F)noc2c(CCC)c1OC(C(=O)O)c1ccc(Cl)cc1 (stereo unspecified)
297

Another compound: CCCc1cc(C(=O)CC)c(O)c(CCC)c1OC(C(=O)O)c1ccccc1 (stereo unspecified)
294

Another compound: CCCc1cc2c(C(F)(F)F)noc2c(CCC)c1OC(C(=O)O)c1ccc(OCc2ccccn2)cc1 (stereo unspecified)
297
